Source listed as PubChem BioAssay.

# assay-method-text: A549 lung cancer cell viability effects, profiling panel, resazurin fluorescence, 24 h, PK04 Diversity Set (AID 1171); further: test concentration not given here
# condition-description: higher = more signal, called active from +8 up or from −8 down
Returns one of satisfied or not satisfied; satisfied when z-score is >= -0.2.

Study these solved cases before continuing.
[[record]]
compound = "COCCCNC(=O)[C@@H]1c2ccccc2C(=O)N(Cc2ccccc2Cl)[C@H]1c1ccc(CO)cc1"
qualitative_label = "satisfied"

[[record]]
compound = "C[N+](C)(C)CCCCNC(=O)[C@@H]1C[C@@H]2C(=O)N[C@@H](Cc3ccccc3)C(=O)N2[C@@H]1c1cccc(OCCO)c1"
qualitative_label = "not satisfied"

[[record]]
compound = "CN(C)C(=O)[C@@]1(CCS(=O)(=O)c2ccccc2)COC(c2ccc(OCCCO)cc2)=N1"
qualitative_label = "not satisfied"

[[record]]
compound = "COc1ccc(C#Cc2ccc3c(c2)[C@]2(C(=O)N3)[C@H](C(=O)NC[C@H](O)c3ccccc3)[C@H]3C(=O)O[C@H](c4ccccc4)[C@H](c4ccccc4)N3[C@@H]2c2ccc(O)cc2)cc1"
qualitative_label = "not satisfied"

[[record]]
compound = "NC(=O)[C@@H]1[C@H]2C(=O)O[C@H](c3ccccc3)[C@H](c3ccccc3)N2[C@H](c2ccc(O)cc2)[C@@]12C(=O)Nc1ccccc12"
qualitative_label = "satisfied"

[[record]]
compound = "COc1cc(NN2C(C(O)c3ccco3)C=CC3C(=O)N(c4ccccc4)C(=O)C32)cc(OC)c1OC (configuration not stated)"
qualitative_label = "not satisfied"


Alright, here's another compound for you.
Exam item: decide whether the reported z-score for COC(=O)[C@@]1(Cc2ccc(OC)cc2)[C@H]2c3cc(C(=O)N4CCCC4)n(CCN4CNCC4=O)c3C[C@H]2CN1C(=O)c1ccccc1 is at least -0.2. not satisfied

====

# target-desc: Follistatin-related protein 3 (Homo sapiens) (UniProt O95633)
# Sequence (O95633 whole entry, looked up): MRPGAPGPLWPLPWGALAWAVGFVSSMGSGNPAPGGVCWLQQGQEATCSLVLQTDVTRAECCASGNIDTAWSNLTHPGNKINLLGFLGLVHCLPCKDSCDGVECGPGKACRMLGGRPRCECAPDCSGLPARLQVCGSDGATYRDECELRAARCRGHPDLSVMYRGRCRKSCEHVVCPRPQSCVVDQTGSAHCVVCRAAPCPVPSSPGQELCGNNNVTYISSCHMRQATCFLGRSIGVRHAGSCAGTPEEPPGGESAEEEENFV
# assay-method-text: FSTL3 binders on small-molecule microarrays, primary screen, biochemical, small-molecule microarray, 635 nm fluorescence (AID 1105);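 further: score merges emission near 667 nm and signal to noise per printed spot across three slides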
# condition-description: FSTL3 binding, higher = more signal
// values below are reported composite z-score
Reply briefly: the number, and no unit.

[[record]]
smiles_record = "CCOC(=O)C[C@H]1[C@H](OC(=O)c2ccc(C(=O)c3ccccc3)cc2)[C@@H](NC(=O)c2ccccc2)c2cc(OCCCO)ccc2N1C(=O)c1ccc2ccccc2n1"
target_desc = "Follistatin-related protein 3 (Homo sapiens) (UniProt O95633)"
reported = 0.399


For C=C(CCCC)/C(=C/C[C@@H](OC(=O)c1ccncc1)c1ccc(OCCO)cc1)c1cc(C(=O)OC)ccc1OC , what is its reported composite z-score? 0.937

For COC(=O)[C@@]1(Cc2ccc(F)cc2)[C@H]2c3cc(C(=O)N4CCCC4)n(CCCNc4ncc(C(F)(F)F)cc4Cl)c3C[C@H]2CN1C(=O)c1ccccc1 , what is its reported composite z-score? -0.142

====

# target-desc: Focal adhesion kinase 1 (Homo sapiens)
# assay-method-text: small-molecule microarray binders of FAK, primary screen, biochemical, 635/667 nm fluorescence, BSA, DTT (AID 1130);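 further: composite of spot emission at 667 nm and signal to noise over triplicate slides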
# condition-description: PTK2 binding, 635 nm fluorescence, higher = more signal
Returns one of YES or NO; YES when composite z-score is >= 0.5.

Study these solved cases before continuing.
[[record]]
molecule = "C=CCNC(=O)[C@H]1[C@@H]2C(=O)O[C@@H](c3ccccc3)[C@@H](c3ccccc3)N2[C@@H](c2ccccc2OCCO)[C@]12C(=O)Nc1ccc(C#CCC(C(=O)OC)C(=O)OC)cc12"
target_desc = "Focal adhesion kinase 1 (Homo sapiens)"
qualitative_label = "NO"

[[record]]
molecule = "COc1ccc(CCNC(=O)[C@@H]2c3ccccc3C(=O)N(Cc3ccccc3Cl)[C@H]2c2ccc(CO)cc2)cc1"
target_desc = "Focal adhesion kinase 1 (Homo sapiens)"
qualitative_label = "NO"

[[record]]
molecule = "C[N+](C)(C)CCCCCCNC(=O)[C@@H]1C[C@@H]2C(=O)N[C@@H](Cc3ccccc3)C(=O)N2[C@@H]1c1cccc(OCCO)c1"
target_desc = "Focal adhesion kinase 1 (Homo sapiens)"
qualitative_label = "NO"

[[record]]
molecule = "O=C(N1CCCCC1)[C@]1(Cc2ccccc2)N=C(c2ccc(OCCCO)cc2)O[C@@H]1c1ccccc1"
target_desc = "Focal adhesion kinase 1 (Homo sapiens)"
qualitative_label = "YES"

[[record]]
molecule = "COc1ccc([Si](C)(C)[C@H]2[C@H](CC(=O)N3Cc4ccccc4C[C@H]3CO)O[C@@]3(C(=O)N(Cc4cccc(N5CCC5=O)c4)c4ccccc43)[C@@H]2C)cc1"
target_desc = "Focal adhesion kinase 1 (Homo sapiens)"
qualitative_label = "YES"

[[record]]
molecule = "CCCC[C@@H]1C[C@H]1[C@@H](NC(=O)c1ccco1)c1ccccc1C(F)(F)F"
target_desc = "Focal adhesion kinase 1 (Homo sapiens)"
qualitative_label = "YES"

[[record]]
molecule = "CCCc1cc2c(n1Cc1cc(F)cc(F)c1)C(C)C1CN(C(=O)c3ccccc3)C(C)(C(=O)OC)C21 (stereo not drawn)"
target_desc = "Focal adhesion kinase 1 (Homo sapiens)"
qualitative_label = "YES"

[[record]]
molecule = "C#C[C@H](O[Si](C#Cc1ccc(Oc2ccccc2)cc1)(C(C)C)C(C)C)c1ccccc1"
target_desc = "Focal adhesion kinase 1 (Homo sapiens)"
qualitative_label = "NO"

[[record]]
molecule = "COC(=O)[C@@]1(Cc2ccccc2)N=C(c2ccc(OCCCO)cc2)O[C@H]1c1ccccc1"
target_desc = "Focal adhesion kinase 1 (Homo sapiens)"
qualitative_label = "NO"

[[record]]
molecule = "NCCCCCCNC(=O)[C@@H]1C[C@@H]2C(=O)NCC(=O)N2[C@@H]1c1ccc(O)cc1"
target_desc = "Focal adhesion kinase 1 (Homo sapiens)"
qualitative_label = "NO"


Exam item: decide whether the reported composite z-score for COC(=O)[C@@]1(Cc2ccc(OC)cc2)[C@H]2c3cc(C(=O)N4CCCC4)n(CCN4CNCC4=O)c3C[C@H]2CN1C(=O)c1ccccc1 is at least 0.5. YES

Exam item: decide whether the reported composite z-score for C[C@H]1C2[C@H](Cc3ccccc3)NC(=O)[C@]23C(=O)N[C@H](Cc2ccccc2)C(=O)N2CCC[C@H]2C(=O)NC/C=C\C/C=C/C3[C@@H]2O[C@]12C (stereo partly drawn) is at least 0.5. YES

Exam item: decide whether the reported composite z-score for CN(C)CCCCCCNC(=O)[C@H]1C[C@H]2C(=O)N[C@@H](CCCCN)C(=O)N2[C@H]1c1cccc(OCCO)c1 is at least 0.5. YES
